Below: a set of entries, each annotated with reported koff.
- SUBJECT_OF_TEST: T1, Cynomolgus monkey serum albumin (cynomolgus monkey, UniProt A2V9Z4 25-608)
- T1 construct: bought; immobilised on a CM5 chip by amine coupling; also called Cyno SA
- ASSAY_METHOD_TEXT: SPR, SA on chip, VHH 300 nM, 25 C
ENDPOINT_LABEL: koff (s⁻¹)

BINDER	QUANTITATIVE_READOUT
VHH moiety 9 (MC6.1C22-R27A) (VHH) VHH: EVQLLESGGGLVQPGGSLRLSCAASGAYIDETAVAWFRQAPGKEREFVAGIGGGVDITYYADSVKGRFTISRDNSKNTLYLQMNSLRPEDTAVYYCAARPGRPLITSKVADLYPYWGQGTLVTVSS	0.0032
VHH moiety 4 (MC6.1C80.43) (VHH) VHH: EVQLLESGGGLVQPGGSLRLSCAASGRYIDETAVAWFRQAPGKGREFVAGIGGGVDITYYADSVKGRFTISRDNSKNTLYLQMNSLRPEDTAVYYCAARPGRPLITSKVADLYPYWGQGTLVTVSS	0.00053

These measurements were taken from patent US20240316154A1.
